Tested on: HL-60 clone 15 cells
METHOD DESCRIPTION: PMA-stimulated EPO release from HL-60 clone 15 cells
Assay type: cell-based, human
CONDITION NOTES: 50 μM test peptide, two hour incubation with 100 nM PMA; HL-60 clone 15 cells
Where a SMILES comes first, the peptide text is derived from it. [ ]: non-standard residue; d: D form. The star is where a group is joined. Myristoyl = CCCCCCCCCCCCCC(=O)*
READOUT LABEL: % Inhibition EPO (%)
One number for each entry, in %.

CCCCCCCCCCCCCC(=O)N[C@H](C(=O)N[C@@H](C)C(=O)N[C@@H](C)C(=O)N[C@@H](CCCCN)C(=O)NCC(=O)N[C@@H](CCC(=O)O)C(=O)N[C@@H](C)C(=O)N[C@@H](C)C(=O)O)[C@@H](C)O [MA-TAAKGEAA, TAAKGEAA] (Myristoyl-TAAKGEAA-OH; C-terminus assumed) :: 0
CCCCCCCCCCCCCC(=O)N[C@@H](C)C(=O)N[C@@H](C)C(=O)N[C@@H](CCCCN)C(=O)NCC(=O)N[C@@H](CCC(=O)O)C(=O)N[C@@H](C)C(=O)O [MA-AAKGEA, AAKGEA] (Myristoyl-AAKGEA-OH; C-terminus assumed) :: 31.4
CCCCCCCCCCCCCC(=O)N[C@@H](C)C(=O)N[C@@H](CCCCN)C(=O)NCC(=O)N[C@@H](CCC(=O)O)C(=O)O [MA-AKGE, AKGE] (Myristoyl-AKGE-OH; C-terminus assumed) :: 0
CCCCCCCCCCCCCC(=O)NCC(=O)N[C@@H](C)C(=O)N[C@@H](CCC(N)=O)C(=O)N[C@@H](Cc1ccccc1)C(=O)N[C@@H](CO)C(=O)N[C@@H](CCCCN)C(=O)N[C@H](C(=O)N[C@@H](C)C(=O)N[C@@H](C)C(=O)N[C@@H](CCCCN)C(=O)NCC(=O)N[C@@H](CCC(=O)O)C(=O)N[C@@H](C)C(=O)N[C@@H](C)C(=O)N[C@@H](C)C(=O)N[C@@H](CCC(=O)O)C(=O)O)[C@@H](C)O [MA-GAQFSKTAAKGEAAAE, GAQFSKTAAKGEAAAE] (Myristoyl-GAQFSKTAAKGEAAAE-OH; C-terminus assumed) :: 30.3
CC(=O)N[C@@H](C)C(=O)N[C@@H](C)C(=O)NCC(=O)N[C@@H](CCC(=O)O)C(=O)O [Ac-AAGE, AAGE] (Ac-AAGE-OH; C-terminus assumed) :: 39.1
CC(=O)NCC(=O)N[C@H](C)C(=O)N[C@H](CCC(N)=O)C(=O)N[C@H](Cc1ccccc1)C(=O)N[C@H](CO)C(=O)N[C@H](CCCCN)C(=O)N[C@@H](C(=O)N[C@H](C)C(=O)N[C@H](C)C(=O)N[C@H](CCCCN)C(=O)O)[C@H](C)O [Ac-GAQFSKTAAK (all d), GAQFSKTAAK (all d)] (Ac-G[dA][dQ][dF][dS][dK][dT][dA][dA][dK]-OH; C-terminus assumed) :: 26.9

# % Inhibition EPO lookup, item CC(=O)N[C@@H](C)C(=O)N[C@@H](CCCCN)C(=O)NCC(=O)N[C@@H](CCC(=O)O)C(N)=O [Ac-AKGE-NH2, AKGE] (Ac-AKGE-NH2)
45.6
